src = paper PMC3679007

- system_under_test: clade 2.1 HPAI H5N1 isolates from Indonesia (neuraminidase) (Influenza A virus, UniProt F5HQR3)
- Type: biochemical, HPAI H5N1 avian influenza virus
- condition_notes: read-out: Extreme High Outliers, IC50 cut-off
pIC50: −log10 of the molar value.
assay_readout: pIC50

Fill blank: measured pIC50 of the molecule CCOC(=O)C1=C[C@@H](OC(CC)CC)[C@H](NC(C)=O)[C@@H](N)C1 [Oseltamivir, oseltamivir] is ____. < 7.20
